study_target: cardiac troponin T (recombinant human) (human)
assay: SPR, 37C
readout_kind: log10(Kd) (log10 of the value in pM)

[[record]]
binder = "Fab combination 13 (antibody, V domains shown) VH: EVQLQQSGPELVKPGASVKMSCKASGYTFTDYIMKWVKQSHGKSLEWIGDINPNNGETWYNQKFKDKATLTVDKSSSTAYMQLNSLTSEDSAVYYCATRYFDFWGQGTTLTVSS VL: DIVLTQSPASLAVSLGQRATISCKASQSVDYDGTSYMNWFQQKAGQPPKRLIYAASNLESGIPARFSGRGSGTDFALNIHPVEEEDAATYYCQQSNEDPYTFGGGTKLEIKR"
recorded_measurement = 2.79

[[record]]
binder = "Fab combination 3 (antibody, V domains shown) VH: EVQLQQSGPELVKPGASVKMSCKASGYTFTDYFMKWVKQSHGKSLEWIGDINPNNGETWYNQKFKDKATLTVDKSSSTAYMQLNSLTSEDSAVYYCATRYFDYWGQGTTLTVSS VL: DIVLTQSPASLAVSLGQRATISCKASQSVDYDGTSYMNWFQQKAGQPPKRLIYAASNLESGIPARFSGRGSGTDFALNIHPVEEEDAATYYCQQSNEDPYTFGGGTKLEIKR"
recorded_measurement = 2.57

[[record]]
binder = "Fab combination 23 (antibody, V domains shown) VH: EVQLQQSGPELVKPGASVKMSCKASGYTFTDYYMKWVKQSHGKSLEWIGDINPNNGETWYNQKFKDKATLTVDKSSSTAYMQLNSLTSEDSAVYYCATRYFDFWGQGTTLTVSS VL: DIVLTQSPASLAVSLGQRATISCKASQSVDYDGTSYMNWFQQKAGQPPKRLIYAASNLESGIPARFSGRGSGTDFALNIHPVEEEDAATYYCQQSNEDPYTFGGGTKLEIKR"
recorded_measurement = 3.08

[[record]]
binder = "Fab combination 18 (antibody, V domains shown) VH: EVQLQQSGPELVKPGASVKMSCKASGYTFTDYYMKWVKQSHGKSLEWIGDINPNNGETFYNQKFKDKATLTVDKSSSTAYMQLNSLTSEDSAVYYCATRYFDYWGQGTTLTVSS VL: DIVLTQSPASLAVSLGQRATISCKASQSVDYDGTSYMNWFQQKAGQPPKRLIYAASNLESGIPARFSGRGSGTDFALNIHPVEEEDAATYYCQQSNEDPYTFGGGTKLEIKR"
recorded_measurement = 3.20

[[record]]
binder = "Fab combination 16 (antibody, V domains shown) VH: EVQLQQSGPELVKPGASVKMSCKASGYTFTDYIMKWVKQSHGKSLEWIGDINPNNGETFYNQKFKDKATLTVDKSSSTAYMQLNSLTSEDSAVYYCATRYFDFWGQGTTLTVSS VL: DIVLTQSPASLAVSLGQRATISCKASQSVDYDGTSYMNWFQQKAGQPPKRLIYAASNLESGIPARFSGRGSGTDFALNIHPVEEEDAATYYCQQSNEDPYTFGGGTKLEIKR"
recorded_measurement = 3.53

[[record]]
binder = "Fab combination 2 (antibody, V domains shown) VH: EVQLQQSGPELVKPGASVKMSCKASGYTFTDYFMKWVKQSHGKSLEWIGDINPNNGETWYNQKFKDKATLTVDKSSSTAYMQLNSLTSEDSAVYYCATRVFDYWGQGTTLTVSS VL: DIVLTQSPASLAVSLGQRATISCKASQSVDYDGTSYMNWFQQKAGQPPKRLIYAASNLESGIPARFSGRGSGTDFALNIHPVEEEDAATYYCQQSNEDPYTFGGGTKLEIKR"
recorded_measurement = 2.66

[[record]]
binder = "Fab combination 17 (antibody, V domains shown) VH: EVQLQQSGPELVKPGASVKMSCKASGYTFTDYYMKWVKQSHGKSLEWIGDINPNNGETWYNQKFKDKATLTVDKSSSTAYMQLNSLTSEDSAVYYCATRVFDYWGQGTTLTVSS VL: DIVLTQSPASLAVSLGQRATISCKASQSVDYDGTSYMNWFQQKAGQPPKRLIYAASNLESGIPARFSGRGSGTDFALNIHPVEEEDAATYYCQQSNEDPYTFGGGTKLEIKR"
recorded_measurement = 2.73

[[record]]
binder = "Fab combination 22 (antibody, V domains shown) VH: EVQLQQSGPELVKPGASVKMSCKASGYTFTDYYMKWVKQSHGKSLEWIGDINPNNGETWYNQKFKDKATLTVDKSSSTAYMQLNSLTSEDSAVYYCATRVFDFWGQGTTLTVSS VL: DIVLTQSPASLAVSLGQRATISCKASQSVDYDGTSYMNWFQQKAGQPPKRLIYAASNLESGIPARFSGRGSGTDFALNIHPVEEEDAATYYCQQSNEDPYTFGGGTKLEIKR"
recorded_measurement = -2.42

[[record]]
binder = "Fab combination 12 (antibody, V domains shown) VH: EVQLQQSGPELVKPGASVKMSCKASGYTFTDYIMKWVKQSHGKSLEWIGDINPNNGETWYNQKFKDKATLTVDKSSSTAYMQLNSLTSEDSAVYYCATRVFDFWGQGTTLTVSS VL: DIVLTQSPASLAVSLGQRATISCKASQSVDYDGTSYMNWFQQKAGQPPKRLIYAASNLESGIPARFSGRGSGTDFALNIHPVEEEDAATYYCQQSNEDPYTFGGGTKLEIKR"
recorded_measurement = 2.51

[[record]]
binder = "Fab combination 20 (antibody, V domains shown) VH: EVQLQQSGPELVKPGASVKMSCKASGYTFTDYYMKWVKQSHGKSLEWIGDINPNNGETFYNQKFKDKATLTVDKSSSTAYMQLNSLTSEDSAVYYCATRYFDFWGQGTTLTVSS VL: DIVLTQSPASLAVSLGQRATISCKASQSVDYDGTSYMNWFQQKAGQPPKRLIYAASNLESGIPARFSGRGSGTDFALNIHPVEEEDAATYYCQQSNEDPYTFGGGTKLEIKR"
recorded_measurement = 3.04


Hello, the source for this data is patent US12275778, in case you need it.
